test: protein stability index of a GFP-peptide fusion (yeast GPS) (PSI 1-4); higher = more stable; sorted into four equal gates, so the index is relative within each strain; settings: san1∆
Listing of entries alongside the reported protein stability index.
Number only, no unit.

Recorded results for 8 sequences are shown here.
ATPIPEEVQQAQTEIKL [RPS5]: 2.97
IPISSETTIDDLPISST [SMC1]: 2.68
VEITFGKEFGDVSVKMG [RRP45]: 1.32
EISAAHNKLNITSDALE [SMC3]: 2.58
RGTIPLLERYIGNLITR [PRP8]: 1.48
SYINVTFRAVVFKPFLG [RPC25]: 2.26
CSKSIPKDKAIKRMAIR [RPS26A]: 2.73
LALETVLIKMVKMLRDN [SIR3]: 2.08

Would you kindly share the measured protein stability index for INGWELTKAQKYLDQVL [RPL17B] ?
2.86

Lookup PPPPGFEEDSDLALPPP [PRP8]
3.19

Item: RITNSFYSTNSQYFKFK [RPN9]
2.42

// same read-out, input: KKPSPQTIPIQIYGFEG [YGR119C/NUP57]
2.49

What do you get for VSDDESNGEVLEVGKNN [RPN14] ?
3.07

Now give it for EINPFLLGTMAGGAADC [PRE2] too.
2.75

Moving on to KKAAEEAGVTDVKVSIS [FAS2]
2.23

Try this sequence next: NVPGVETANVASLNLLQ [RPL4A]
2.86

Further, for EGDASPFTDITVEGISK [RPB2] ?
3.08

Try this sequence too: PTRYVLIRNVGTNTYRL [POP1]
1.12

# iterate: IQLSTVNRQSPLFFVDL [RGR1]
1.9

Then KIEFPLPSEDSRAQILQ [RPT5] ?
3.11

What about PEDLNSLYIYYLIKLLG [SIR2] ?
2.18

Note, next up: RKHRNAQFAGRASIEYY [DIS3]
2.8

// query: IALSRRFLLNGRVKALE [YDL116W/NUP84]
1.19

How about KVSSASAAASESDVAKQ [RPL16B] ?
2.04

Now consider SPLLESDSIEKIVEIDR [PUP2] and answer again.
2.59

Here is the next sequence: TRHQNTIHAKRKIVFRC [RPN4]
2.8

What would you report for FMTKLLEVANDLQLLYV [IRR1] ?
2.23

Next: KKLDYVLALKVEDFLER [RPS9A]
2.08

====

experiment: protein stability index of a GFP-peptide fusion (yeast GPS) (PSI 1-4); higher = more stable; sorted into four equal gates, so the index is relative within each strain; details: doa10∆
Consider the following partition of reported protein stability index into named classes: label 0 = under 2, label 1 = from 2 up to 3, label 2 = 3 and over

DEGHVLKLENLHVVSKS [SIN4]: label 2
KDGGDKPPSSAFNFSFN [YAR002W/NUP60]: label 2
ATFTSIELTSYESIATY [RPN7]: label 0

Just checking, what class would you give KVLCLAVAVGNVEMEED [RPL1A] here?
label 0

Let us now turn to NLPEEERKQIHEFKLIV [GRR1]
label 1

Okay, and TGSIRHRLKLCKSLISE [CSE2] ?
label 2

Same thing, different sequence: VISFGQPKLNPMASSSS [SWI1]
label 1

Can you check TLSPNVTDSSLLKLLTR [GRR1] next?
label 1

And FNKNLGKGPGCGFWQPA [PRP8] ?
label 2

Also NDNIGANRSRFNNEAPP [SMB1] ?
label 1
